I'd be grateful if you could share measured HPLC elution time (hydrophobicity) for these entries.
Assay: Reverse-phase C18 HPLC elution time as measure of hydrophobicity
Assay type: physicochemical
Conditions: chromatographic; semi-prep C18 column (Gemini 5 μm 110A, 250 × 10 mm), gradient 50% methanol to 100% methanol in 50 min, 1 ml per min, A254; approximate time
*1 amine or outer side, *2 acyl side, *3 side chain or, on linkers, in order; H or OH if unused. Where a SMILES comes first, the peptide text is derived from it. [ ]: non-standard residue; d: D form. The star is where a group is joined. X3 = C[C@@H](CN(C)C(=O)CCCCCNC(=O)CCCC[C@@H]1SC[C@@H]2NC(=O)N[C@@H]21)N*; X2 = C[C@@H](CN(C)C(=O)CCC[n+]1c2cc(N(C)C)ccc2cc2ccc(N(C)C)cc21)N*; X1 = CCC(=O)C[C@H](O)C[C@@H](C)C[C@H](N[*:1])C(=O)[*:2]; Hexenoyl(2E,4S-Me) = CC[C@H](C)/C=C/C(=O)*; Leu(3R-OH) = CC(C)[C@@H](O)[C@H](N)C(=O)O; NH((S)CH(Me)CH2NMe2) = C[C@@H](CN(C)C)N*; Pro(4S-Me) = C[C@@H]1CN[C@H](C(=O)O)C1; NH((S)CH(CH3)CH2NHMe) = CNC[C@H](C)N*; Aib = CC(C)(N)C(=O)O; βAla = NCCC(=O)O

Here is how some compounds turned out for HPLC elution time (hydrophobicity).
{"compound": "O=C(CCCC[C@@H]1SC[C@@H]2NC(=O)N[C@@H]21)NCCCCCC(=O)ON1C(=O)CC(S(=O)(=O)[O-])C1=O.[Na+] (some centres unmarked) [sulfo-NHS-LC-Biotin]", "HPLC elution time (hydrophobicity)": "~16.5 min"}
{"compound": "CCC(=O)C[C@H](O)C[C@@H](C)C[C@H](NC(=O)[C@@H]1C[C@H](C)CN1C(=O)/C=C/[C@@H](C)CC)C(=O)N[C@H](C(=O)NC(C)(C)C(=O)N[C@@H](CC(C)C)C(=O)N[C@@H](CC(C)C)C(=O)NC(C)(C)C(=O)NC(C)(C)C(=O)NCCC(=O)N[C@@H](C)CNC)[C@H](O)C(C)C [LB, leucinostatin B] ({Hexenoyl(2E,4S-Me)}-[Pro(4S-Me)][X1][Leu(3R-OH)][Aib]LL[Aib][Aib][βAla]-{NH((S)CH(CH3)CH2NHMe)})", "HPLC elution time (hydrophobicity)": "~27.5 min"}
{"compound": "CCC(=O)C[C@H](O)C[C@@H](C)C[C@H](NC(=O)[C@@H]1C[C@H](C)CN1C(=O)/C=C/[C@@H](C)CC)C(=O)N[C@H](C(=O)NC(C)(C)C(=O)N[C@@H](CC(C)C)C(=O)N[C@@H](CC(C)C)C(=O)NC(C)(C)C(=O)NC(C)(C)C(=O)NCCC(=O)N[C@@H](C)CN(C)C)[C@H](O)C(C)C [LA, leucinostatin A] ({Hexenoyl(2E,4S-Me)}-[Pro(4S-Me)][X1][Leu(3R-OH)][Aib]LL[Aib][Aib][βAla]-{NH((S)CH(Me)CH2NMe2)})", "HPLC elution time (hydrophobicity)": "~28.3 min"}
{"compound": "CCC(=O)C[C@H](O)C[C@@H](C)C[C@H](NC(=O)[C@@H]1C[C@H](C)CN1C(=O)/C=C/[C@@H](C)CC)C(=O)N[C@H](C(=O)NC(C)(C)C(=O)N[C@@H](CC(C)C)C(=O)N[C@@H](CC(C)C)C(=O)NC(C)(C)C(=O)NC(C)(C)C(=O)NCCC(=O)N[C@@H](C)CN(C)C(=O)CCCCCNC(=O)CCCC[C@@H]1SC[C@@H]2NC(=O)N[C@@H]21)[C@H](O)C(C)C [LB-biotin] ({Hexenoyl(2E,4S-Me)}-[Pro(4S-Me)][X1][Leu(3R-OH)][Aib]LL[Aib][Aib][βAla]-X3)", "HPLC elution time (hydrophobicity)": "~31.5 min"}

Kindly review the next compound as well.
-- ask Give the measured HPLC elution time (hydrophobicity) of CCC(=O)C[C@H](O)C[C@@H](C)C[C@H](NC(=O)[C@@H]1C[C@H](C)CN1C(=O)/C=C/[C@@H](C)CC)C(=O)N[C@H](C(=O)NC(C)(C)C(=O)N[C@@H](CC(C)C)C(=O)N[C@@H](CC(C)C)C(=O)NC(C)(C)C(=O)NC(C)(C)C(=O)NCCC(=O)N[C@@H](C)CN(C)C(=O)CCC[n+]1c2cc(N(C)C)ccc2cc2ccc(N(C)C)cc21)[C@H](O)C(C)C [LB-Atto495] ({Hexenoyl(2E,4S-Me)}-[Pro(4S-Me)][X1][Leu(3R-OH)][Aib]LL[Aib][Aib][βAla]-X2) .
-- reply 29 min

====

Assay: Cytotoxicity assay, MTT, HEK293
Type: cell-based, human
Conditions: 24 h incubation at 37 °C, three replicates
Description: Two methods and two types of cells were used to analyze the general cytotoxicity of small molecules. First, MTT (3-(4,5-dimethylthiazol-2-yl)-2,5-diphenyl tetrazolium bromide; Thermo-fisher) and human embryonic kidney 293 (HEK293) were used in cytotoxicity assays. […] Optical density was measured at an absorbance wavelength of 540 nm.
*1 amine or outer side, *2 acyl side, *3 side chain or, on linkers, in order; H or OH if unused. Where a SMILES comes first, the peptide text is derived from it. [ ]: non-standard residue; d: D form. The star is where a group is joined. X1 = CCC(=O)C[C@H](O)C[C@@H](C)C[C@H](N[*:1])C(=O)[*:2]; Hexenoyl(2E,4S-Me) = CC[C@H](C)/C=C/C(=O)*; Leu(3R-OH) = CC(C)[C@@H](O)[C@H](N)C(=O)O; NH((S)CH(Me)CH2NMe2) = C[C@@H](CN(C)C)N*; Pro(4S-Me) = C[C@@H]1CN[C@H](C(=O)O)C1; Aib = CC(C)(N)C(=O)O; βAla = NCCC(=O)O
measured_quantity: IC50 (nM)
Give bare numbers, in nM.

-- ask Which value of IC50 has been reported for CCC(=O)C[C@H](O)C[C@@H](C)C[C@H](NC(=O)[C@@H]1C[C@H](C)CN1C(=O)/C=C/[C@@H](C)CC)C(=O)N[C@H](C(=O)NC(C)(C)C(=O)N[C@@H](CC(C)C)C(=O)N[C@@H](CC(C)C)C(=O)NC(C)(C)C(=O)NC(C)(C)C(=O)NCCC(=O)N[C@@H](C)CN(C)C)[C@H](O)C(C)C [LA, leucinostatin A] ({Hexenoyl(2E,4S-Me)}-[Pro(4S-Me)][X1][Leu(3R-OH)][Aib]LL[Aib][Aib][βAla]-{NH((S)CH(Me)CH2NMe2)}) in the records?
-- reply 89.6
